# assay.protocol: yeast display, Sf9 membrane polyspecificity reagent, FACS + sequencing; frameworks hold sequencing errors
measured.metric: polyreactivity (PSR sort gate)

Some solved cases for reference:
residues | polyreactivity (PSR sort gate)
QVQLVESGGGLVQAGGSLRLSCAASGRIFKRSVMGWYRQAPGKERELVAAITGRGGSTYYADSVKGRFTISRDNAKNTVYLQMNSLKPEDTAVYYCNAKDAEHYERFNYWGQGTQVTVSS | low polyreactivity
QVQLEESGGGLVQAGGSLRLSCAASGSILPDYVMGWYRQAPGKERELVAAISWSDGSTYYADSVKGRFTISRDNAKNTVYLQRNSLKPEDTAVYYCAAEVWDYYYGCYADDYWGQGTQVTVSS | low polyreactivity
QVQLVESGGGLVQAGGSLRLSCAASGRTSARYGMGWYRQAPGKERELVASIRRSGDSTYYADSVKGRFTISRDNAKNTVYLQLNSLKPEDTAVYYCAAGGKQGKRDYWGQGTQVTVSS | low polyreactivity
QVQLVESGGGLVQAGGSLRLSCAASGRIFGTNTMGWYRQAPGKERELVAGISSSGDSTYYADSVKGRFTISRDNAKNTVYLQMNSLKPEDTAVYYCAARKGEFWFPQGGYNYWGQGTQVTVSS | low polyreactivity
QVQLVESGGGLVQAGGSLRLSWAASGITFDDYAMGWYRPAPGKERELVAAITWSGDSTYYADSVKGRFTISRDNAKNTVYLQMNSLKPEDTAVYYCAAVSYYWGQGTQVTVSS | high polyreactivity

Enquiry: Provide one value: measured polyreactivity (PSR sort gate) of QVQLVESGGGLVQAGGSLRLSCAASGFTFDRYAMGWYRQAPGKERELVAAISRSGGSTHYADSVKGRFTISRDNAKNTVYLQMNSLKPEDTAVYYCNKRWFYDGYDYWGQGTQVTVSS
Return: high polyreactivity

Enquiry: Output polyreactivity (PSR sort gate) of QVQLVESGGGLVQAGGSLRLTCAASGYIFNQYTMGWYRQAPGKERELDADISSGGSTKYADSVKVRFTISRDNAKNTVYLQMISRKAEDTAFYYCNAEYVYGYPTAYDWEYDYWGQGTQVTLSS
Return: high polyreactivity

Enquiry: Kindly indicate its recorded polyreactivity (PSR sort gate). Item: QVQLVESGGGLVQAGGSLRLSCAAYGFISPSYAMGWYRQAPGKERELVAAIRSSDGSTYYADSVKGRFTISRDNAKNTVYLQMNSLKPEDTAVYYCAARRVTSPFGSDSWGQGTQVTVSS
Return: low polyreactivity

Enquiry: Given the sequence QVQLVESGGGLVQAGGSLRLSCAASGRIFKRYAMGWYRQAPGKERELVAAITYNSGSTYYADSVKGRFTISRDNAKNTVYLQMNSLKPEDTAVYYCAAEKWSDQSPRGDYWGQGTQVTVSS , write its reported polyreactivity (PSR sort gate).
Return: low polyreactivity

Enquiry: // fetch polyreactivity (PSR sort gate) given entry QVQLVESGGGLVQAGGSLRLSWAASGITFRYYAMGWYRHAPGKERELVAAITSGGSTYYADSVKGRFTISRDNAKNTVYLQMNSLKPEDTAVYYCAAKYTLGVSRHPPVKKFYYWGQGTQVTVSS
Return: high polyreactivity

Enquiry: Provide polyreactivity (PSR sort gate) value for the following sequence: QVQLVETGGGLVQAGGSLRLSCAASGTLSSYAMGWYRPAPGTERELVAAISLSGGSTYADSVKGRFTISRDNAKNTVYLQMNSLKPEDTAVYYCAATSSFRYDYWGQGTQVTVSS
Return: low polyreactivity

Enquiry: Consider the sequence QVQLVESGGGLVQAGGSLRLSCAASGITLFHYVMGWYRQAPGKERELVADITWRGGNTFYADSVKGRFTISRDNAKNTVYLQMNSLKPEDTAVYYCAVRQAYRTRDYDYWGQGTQVTVSS . State its measured polyreactivity (PSR sort gate).
Return: high polyreactivity

Enquiry: Please look at this sequence and report its polyreactivity (PSR sort gate): QVQLVESGGGLVQAGGSLRLSCAASGRINLYNAMGWYRQAPRKEMELVAVISYRGGSTYYADSVKGRFTISRENAKNTVYLQMNSLKPDDTAVYYCNKDKSYSGTRYDYWGQGTQVTVSS
Return: high polyreactivity

Enquiry: Name the recorded polyreactivity (PSR sort gate) of the sequence listed here: QVQLVESGGGLVQAGGSLRLSCAASGRIFYANSMGWYRQAPGKERELVASISARGGYTYYADSVKGRFTISRDTAKNTVYLQMNSLKPEDTAVYYCAAEYLAVSGYWYAYWGQGTQVTVSS
Return: high polyreactivity

Enquiry: Input QDQLVESGGGLVQAGGSLRLTCAASGSIFTAYTMGWYRQAPVKERELVAAITERGGSTYYADSVKGRFTISRDNAKNTFYLQMNRMKPEDTAVYYCAASTLKDIYLWFRVDYWGQGTQVTLSS , output reported polyreactivity (PSR sort gate).
Return: low polyreactivity

Enquiry: Using known records, supply polyreactivity (PSR sort gate) for QVQLVESGGGLVQAGGSLRLSCAASGFTFPVYAMGWYRQAPGKEREFVAAITYIGGSTDADSVKGRFTISRDNAKNTVYLQMNSLKPEDTAVYYCAADIITEYRADYLVYLEYDYWGQGTQVTVSS
Return: low polyreactivity

Enquiry: Return the recorded polyreactivity (PSR sort gate) value; entry: HVQLVESGGGLVQAGGSLRLSCAASGRIFDWNAMGWYRPAPGKEWELVAAISSRSGGTYYADSVKGRFTISRDNAKNTVYFQMNSLKPEDTAVYYCAADYYWYGRFEYGYWGQGTQVTVSS
Return: low polyreactivity

Values compiled from the nanobody polyreactivity screen of Harvey et al. (2022).
